The values you see were collected from PubChem BioAssay AID1851.

Biological target: Cytochrome P450 2D6 (Homo sapiens) (UniProt P10635)
Sequence (P10635 whole entry, looked up): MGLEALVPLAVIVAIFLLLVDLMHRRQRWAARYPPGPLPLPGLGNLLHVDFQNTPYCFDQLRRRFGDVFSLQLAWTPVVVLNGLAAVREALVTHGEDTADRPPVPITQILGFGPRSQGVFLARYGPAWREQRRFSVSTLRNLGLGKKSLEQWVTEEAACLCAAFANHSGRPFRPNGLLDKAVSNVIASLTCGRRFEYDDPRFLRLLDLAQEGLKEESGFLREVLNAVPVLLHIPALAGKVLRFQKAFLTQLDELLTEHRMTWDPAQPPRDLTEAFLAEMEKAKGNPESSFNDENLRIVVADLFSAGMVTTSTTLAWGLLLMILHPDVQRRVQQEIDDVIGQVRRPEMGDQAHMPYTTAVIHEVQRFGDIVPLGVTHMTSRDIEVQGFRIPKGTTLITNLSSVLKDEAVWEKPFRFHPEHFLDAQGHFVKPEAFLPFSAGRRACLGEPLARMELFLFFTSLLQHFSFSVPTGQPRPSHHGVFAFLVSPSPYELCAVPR
Test: Cytochrome panel assay with activity outcomes
Conditions: recombinant CYP, pro-luciferin dealkylation, luminescence, p450-cyp2d6; series mostly up to 57.1 µM
Among all 16,000 compounds or so, about 2,600 (16%) were called active. Roughly 20% stayed inconclusive and do not appear here. The call rests on the fitted dose curve; in most records, active means well fitted curve in the direction sought with a large enough effect; inconclusive means small, poorly fitted or top-dose-only effect, or effect the other way; inactive means no such curve, though single readings can be large or run the other way. This excerpt belongs to a sample that is enriched for actives.
Entry note: the call must match one of 1 = active, 0 = inactive

Worked examples follow.
[[record]]
molecule = "CCOP(=O)(CN(CC)CCNP(=O)(OCC)OCC)OCC"
target_desc = "Cytochrome P450 2D6 (Homo sapiens) (UniProt P10635)"
discrete_label = 0

[[record]]
molecule = "COc1ccc2c3c([nH]c2c1)C(C)=NCC3"
target_desc = "Cytochrome P450 2D6 (Homo sapiens) (UniProt P10635)"
discrete_label = 1

[[record]]
molecule = "NC(=O)CI"
target_desc = "Cytochrome P450 2D6 (Homo sapiens) (UniProt P10635)"
discrete_label = 0

[[record]]
molecule = "C/C(=C\\c1ccc(N(C)C)cc1)[N+](=O)[O-]"
target_desc = "Cytochrome P450 2D6 (Homo sapiens) (UniProt P10635)"
discrete_label = 0

[[record]]
molecule = "COc1ccc2[nH]c3c(c2c1)CCN=C3C"
target_desc = "Cytochrome P450 2D6 (Homo sapiens) (UniProt P10635)"
discrete_label = 1


Now consider the entry below.
Please share the test call associated with COc1cc(/C=N/NC(=O)CN2CC(c3ccccc3)CC2=O)ccc1OC(=O)N(C)C (configuration not stated) .
0

* * *

Molecular target: Cytochrome P450 2D6 (Homo sapiens)
Assay: Cytochrome panel assay with activity outcomes
Conditions: recombinant CYP, pro-luciferin dealkylation, luminescence, p450-cyp2d6; series mostly up to 57.1 µM
The campaign covered roughly 16,000 compounds. About 2,600 (16%) were called active. Inconclusive results (about 20%) are left out. The call rests on the fitted dose curve; in most records, active means well fitted curve in the direction sought with a large enough effect; inconclusive means small, poorly fitted or top-dose-only effect, or effect the other way; inactive means no such curve, though single readings can be large or run the other way. This is one part of a sample in which actives are shown more often than they occur.
Entry note: the call must match one of Y (active), N (inactive)

[[record]]
compound = "c1ccc(N2CCCC3(CCNCC3)C2)nc1"
target_desc = "Cytochrome P450 2D6 (Homo sapiens)"
discrete_label = "Y"

[[record]]
compound = "O=C1C[C@@H](c2ccc(O)cc2)Oc2cc(O)cc(O)c21"
target_desc = "Cytochrome P450 2D6 (Homo sapiens)"
discrete_label = "N"

[[record]]
compound = "C/C(=C\\C=C/[C@@H](C)C(=O)O)[C@H]1CN[C@H](C(=O)O)[C@@H]1CC(=O)O"
target_desc = "Cytochrome P450 2D6 (Homo sapiens)"
discrete_label = "N"

[[record]]
compound = "c1ccc2c(c1)OC[C@@H](C1=NCCN1)O2"
target_desc = "Cytochrome P450 2D6 (Homo sapiens)"
discrete_label = "Y"

[[record]]
compound = "Clc1ccccc1-c1cncnc1NCCc1cnc[nH]1"
target_desc = "Cytochrome P450 2D6 (Homo sapiens)"
discrete_label = "Y"

[[record]]
compound = "Cc1sc2c(c1C)C(c1ccc(C(C)(C)C)cc1)=NCC(=O)N2CC(=O)Nc1nccs1"
target_desc = "Cytochrome P450 2D6 (Homo sapiens)"
discrete_label = "N"


Please share the test call associated with CCOc1ccc(C2C(C#N)=C(N)Oc3c2c(=O)oc2ccccc32)cc1 (configuration not stated) .
N

Please share the test call associated with N[C@H](CP(=O)(O)O)C(=O)O .
N

Please share the test call associated with Cc1ccc(C(=O)C2C(=O)c3ccccc3C2=O)cc1 .
N
